Biological target: brain AChE
Type: biochemical, Lagocephalus laevigatus
Settings: Lagocephalus laevigatus (puffer fish) brain AChE; read-out: Kd: dissociation constant of enzyme-inhibitor complex (EI)
Reported Endpoint: Kd (µM)
Write the value in µM as a bare number.

Challenge: Provide value of Kd for this record tested with brain AChE: COP(=O)(OC)Oc1ccc([N+](=O)[O-])cc1 [methyl-paraoxon, dimethyl-4-nitrophenyl-phosphate]
Response given: 62.6

* * *

Molecular target: brain AChE
Assay type: biochemical
Conditions: Genidens genidens (catfish) brain AChE; read-out: Kd: dissociation constant of enzyme-inhibitor complex (EI)
Reported Endpoint: Kd (µM)
Numbers only; they are read as µM.

Challenge: Value lookup for Kd; key = COP(=O)(OC)Oc1ccc([N+](=O)[O-])cc1 [methyl-paraoxon, dimethyl-4-nitrophenyl-phosphate]
Response given: 20.3
